Target entity: full length TcdB (C. difficile, UniProt P18177 1-2366)
Measurement notes: SPR
Stated conditions: both partners purified
Experimental endpoint: log10(kon) (log10 of the value in M⁻¹ s⁻¹)
Transform log10 | Measure kon | Unit M⁻¹ s⁻¹

Worked examples follow.
# Binder, Experimental endpoint, Readout number
records = [
    ("ss2cspg27 (designed binder, also called c27; dual disulfide version of cspg27) MDELVEKLKECLEKLKEKGDIKGVTDTEKAIRICERSRHKEFCEWAIEACEARIKES", "log10(kon)", 5.30),
    ("cspg67 (designed binder) AEELAKKLEEMAEVFKEKGDEEGAKECLKAAKIVRRSKNEEFGKWCIKKAEERLKKL", "log10(kon)", 6.30),
    ("ss2cspg18 (designed binder, also called c18; dual disulfide version of cspg18) MDEKVEKLKECLEKLKEKGDIKGVIDTERAIRICERSRHKEFCEWAIEKCENRIKES", "log10(kon)", 6.28),
]

response.value for cspg4 (designed binder) ENKLARAVVTVNKSWLATQLFVRLYRLCKAGDPRCEEVAEKLRKVLELQGVPETDIELVVEVAKG (field: log10(kon)) = 7.28

log10(kon) measured on ss2cspg35 (designed binder, also called dual disulfide version of cspg35) MDELVEKLKECLEKLKEKGDLKGVKDTERAIRICERSRHKEFCEWAIEKCEARIKES = 5.22
